- System Tested: GABA-A receptor; anion channel (Rattus norvegicus) (UniProt O09028+P15431+P18506+P18508+P19969+P20236+P23574+P23576+P28471+P28473+P30191+P62813+P63079+P63138+Q91ZM7+Q9ES14)
- Assay Summary: Percent inhibition of rat benzodiazepine receptor assayed using [3H]-flumazenil radioligand at 10 um concentration
- Assay type: protein-complex assay
Would you kindly list inhibition for each of these molecules?

Exam item: Determine its reported inhibition: CCC(C)N(C(=O)C(=O)c1c(-c2ccccc2)[nH]c2ccccc12)C(C)CC (stereo not given)
Marked response: 5%

Exam item: Determine its reported inhibition: CCCCCCN(CCCCCC)C(=O)C(=O)c1c(-c2ccccc2)[nH]c2ccc(Cl)cc12
Marked response: 3%

Exam item: Determine its reported inhibition: CCCCN(CCCC)C(=O)C(=O)c1c(-c2ccc(C)cc2)[nH]c2ccccc12
Marked response: 11%

Exam item: Determine its reported inhibition: CCCCCN(CCCCC)C(=O)C(=O)c1c(-c2ccccc2)[nH]c2ccccc12
Marked response: 3%

Exam item: Determine its reported inhibition: CCCCNC(=O)C(=O)c1c(-c2ccccc2)[nH]c2ccccc12
Marked response: 12%

Exam item: Determine its reported inhibition: O=C(C(=O)N1CCCCCC1)c1c(-c2ccccc2)[nH]c2ccccc12
Marked response: 5%

Exam item: Determine its reported inhibition: CCCCCCN(CCCCCC)C(=O)C(=O)c1c(-c2ccc(F)cc2)[nH]c2ccccc12
Marked response: 0%

Exam item: Determine its reported inhibition: O=C(C(=O)N1CCCC1)c1c(-c2ccccc2)[nH]c2ccccc12
Marked response: 4%

Exam item: Determine its reported inhibition: CCCCN(CCCC)C(=O)C(=O)c1c(-c2ccccc2)[nH]c2ccccc12
Marked response: 3%

Exam item: Determine its reported inhibition: CCCCN(CCCC)C(=O)C(=O)c1c(-c2ccc(Cl)cc2)[nH]c2ccccc12
Marked response: 0%

###

- System Tested: Cholesterol side-chain cleavage enzyme, mitochondrial (Rattus norvegicus, UniProt P14137)
- Sequence (P14137 whole entry): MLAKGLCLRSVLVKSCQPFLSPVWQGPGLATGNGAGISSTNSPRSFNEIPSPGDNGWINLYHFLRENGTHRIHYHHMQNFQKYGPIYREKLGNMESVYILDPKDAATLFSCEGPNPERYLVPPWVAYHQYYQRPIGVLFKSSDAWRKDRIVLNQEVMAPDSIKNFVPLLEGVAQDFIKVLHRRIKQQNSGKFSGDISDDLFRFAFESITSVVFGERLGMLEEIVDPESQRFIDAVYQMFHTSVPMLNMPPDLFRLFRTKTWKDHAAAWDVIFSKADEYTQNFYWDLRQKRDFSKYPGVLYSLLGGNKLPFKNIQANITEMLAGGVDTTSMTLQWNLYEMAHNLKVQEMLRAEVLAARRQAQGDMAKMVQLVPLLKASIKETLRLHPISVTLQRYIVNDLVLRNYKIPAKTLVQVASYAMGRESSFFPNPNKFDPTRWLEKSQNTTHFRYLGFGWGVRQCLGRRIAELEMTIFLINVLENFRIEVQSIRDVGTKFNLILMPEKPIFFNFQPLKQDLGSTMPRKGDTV
- Assay Summary: Stimulation of pregnenolone formation from rat C6 glioma cells
- Type: functional, cell-based
- Set-up: concentration or dose not given beside the values
Measure: Activity (%)
Please state the figure in %; there is no need to write the unit.

Exam item: Determine its reported Activity: CCCCN(CCCC)C(=O)C(=O)c1c(-c2ccc(Cl)cc2)[nH]c2ccc(Cl)cc12
Marked response: 147

Exam item: Determine its reported Activity: CCCCN(CCCC)C(=O)C(=O)c1c(-c2ccccc2)[nH]c2ccccc12
Marked response: 23

Exam item: Determine its reported Activity: CCCCCCN(CCCCCC)C(=O)C(=O)c1c(-c2ccc(Cl)cc2)[nH]c2ccccc12
Marked response: 109

Exam item: Determine its reported Activity: CCCCCCN(CCCCCC)C(=O)C(=O)c1c(-c2ccc(F)cc2)[nH]c2ccccc12
Marked response: 62

Exam item: Determine its reported Activity: CCCCN(CCCC)C(=O)C(=O)c1c(-c2ccc(F)cc2)[nH]c2ccccc12
Marked response: 26

###

- System Tested: GABA-A receptor; anion channel (Rattus norvegicus) (UniProt O09028+P15431+P18506+P18508+P19969+P20236+P23574+P23576+P28471+P28473+P30191+P62813+P63079+P63138+Q91ZM7+Q9ES14)
- Assay Summary: Percent inhibition of rat benzodiazepine receptor assayed using [3H]-flumazenil radioligand at 10 um concentration
- Type: protein-complex assay
Would you kindly list inhibition for each of these compounds?
Number first, unit second: that is the form wanted.

Exam item: Determine its reported inhibition: CCN(CC)C(=O)C(=O)c1c(-c2ccccc2)[nH]c2ccccc12
Marked response: 6%

Exam item: Determine its reported inhibition: CCCCN(CCCC)C(=O)C(=O)c1c(-c2ccc(Cl)cc2)[nH]c2ccc(Cl)cc12
Marked response: 0%

Exam item: Determine its reported inhibition: CCCN(CCC)C(=O)C(=O)c1c(-c2ccc(Cl)cc2)[nH]c2ccccc12
Marked response: 14%

Exam item: Determine its reported inhibition: CCCCN(CCCC)C(=O)C(=O)c1c(-c2ccc(F)cc2)[nH]c2ccccc12
Marked response: 0%

Exam item: Determine its reported inhibition: CC(C)N(C(=O)C(=O)c1c(-c2ccccc2)[nH]c2ccccc12)C(C)C
Marked response: 4%

Exam item: Determine its reported inhibition: CCCCCCN(CCCCCC)C(=O)C(=O)c1c(-c2ccccc2)[nH]c2ccccc12
Marked response: 10%
